# Measurement Protocol: in vivo
# Study Conditions: BALB/c, mouse, ip, 5 mg/kg, T1/2, plasma, i.p. drug suspension, 5 mg/kg tamibarotene
Measure Name: half-life (h)

{"Mol": "CC1(C)CCC(C)(C)c2cc(NC(=O)c3ccc(C(=O)O)cc3)ccc21", "Uom": "h", "Test Result": 1.8}

* * *

# Measurement Protocol: in vivo
# Study Conditions: BALB/c, mouse, ip, 5 mg/kg, AUC0-8 h, lung, i.p. drug suspension, 5 mg/kg tamibarotene

{"Mol": "CC1(C)CCC(C)(C)c2cc(NC(=O)c3ccc(C(=O)O)cc3)ccc21", "AUC(0-t) (ng·h/mL)": 2400}

* * *

# Measurement Protocol: in vivo
# Study Conditions: BALB/c, mouse, ip, 5 mg/kg, MRT0-8 h, lung, i.p. drug suspension, 5 mg/kg tamibarotene

{"Mol": "CC1(C)CCC(C)(C)c2cc(NC(=O)c3ccc(C(=O)O)cc3)ccc21", "MRT last": "36 min"}

Measured values drawn from patent US20220378727A1 for this set.
